In this section we review reported melting point values for a set of compounds.

{"compound": "Cc1ccc(OCC(=O)O)c2c3c(C(N)=O)cccc3n(Cc3ccccc3)c12 [Example 50]", "melting point": "253 to 254 °C"}
{"compound": "COc1cc(OC(C)C(=O)O)c2c3c(C(N)=O)cccc3n(Cc3ccccc3)c2c1 (stereo not drawn) [Example 5]", "melting point": "170 to 172 °C"}
{"compound": "COc1cc(OC)c2c3c(n(Cc4ccccc4)c2c1)CCCC3C(N)=O (stereo not drawn) [Example 2]", "melting point": "190 to 192 °C"}
{"compound": "COc1cc(OC)c2c3c(n(Cc4ccccc4)c2c1)CCCC3C(=O)NN (stereo not drawn) [Example 1]", "melting point": "189 to 190 °C"}
{"compound": "NC(=O)c1cccc2c1c1c(OCC(=O)O)ccc(Cl)c1n2Cc1ccccc1 [Example 54]", "melting point": "240 to 242 °C"}
{"compound": "COc1cc(OCC(=O)[O-])c2c3c(n(Cc4ccccc4)c2c1)CCCC3C(N)=O.[Na+] (stereo not drawn)", "melting point": "251 to 254 °C"}
